biological target: chymotrypsin (Bos taurus); construct: purchased SIGMA; assay: Decomposition by chymotrypsin (resistance to peptidase); assay type: in vitro ADME; details: chymotrypsin (isolated enzyme, SIGMA), pH 8; enzyme solution 4 U/ml in 0.1M Tris-HCl (pH8.0), peptide 0.2 mg/ml, 37° C., HPLC; read-out: half period by chymotrypsin (t1/2)
Numbered stars: 1 amine (or outer) side, 2 acyl side, 3 side chain; on linkers, the order of the positions; unused ones are H or OH. Bridge positions count the residues as written; N and C are the ends. Square brackets hold non-standard residues; d marks the D form. Peptide text beside a SMILES is read from it. Nle(6-ylidene) = O=C([C@H](CCCC=[*:3])N[*:1])[*:2]
test.readout: half-life at 0.2 mg/ml

CC(C)C[C@@H]1NC(=O)[C@H](Cc2ccc(O)cc2)NC(=O)[C@H](CCC(N)=O)NC(=O)[C@H](CO)NC(=O)[C@H](Cc2c[nH]c3ccccc23)NC(=O)[C@@H](NC(=O)[C@@H](N)Cc2ccc(O)cc2)CCC/C=C\CCC[C@@H](C(=O)N[C@@H](Cc2ccc(O)cc2)C(=O)O)NC1=O [Comp. 3] (H-Y[Nle(6-ylidene)]WSQYL[Nle(6-ylidene)]Y-OH; staple (Z) 2-8) ... 2.07 min

Next, consider the following compound.
Item CC(=O)N1CCCC[C@@H](C(=O)N[C@@H](Cc2ccc(O)cc2)C(=O)O)NC(=O)[C@H](CC(C)C)NC(=O)[C@H](Cc2ccc(O)cc2)NC(=O)[C@H](CCC(N)=O)NC(=O)[C@H](CO)NC(=O)[C@H](Cc2c[nH]c3ccccc23)NC(=O)CN(C(=O)[C@@H](N)Cc2ccc(O)cc2)CCCC1 has what recorded half-life at 0.2 mg/ml? 0.97 min

---

Tested on: carboxy peptidase
Assay: Decomposition by carboxy peptidase (resistance to peptidase)
Assay type: in vitro ADME
Conditions: carboxy peptidase (isolated enzyme, SIGMA); enzyme solution 1 U/ml in PBS, peptide 0.2 mg/ml, 37° C., HPLC; time at which half of the peptide was decomposed; read-out: half period by carboxy peptidase (t1/2) (converted)
Procedure: Resistance to a peptidase of a peptide of the present invention was investigated using a carboxy peptidase and chymotrypsin. Resistance to a peptidase was measured as described below. (Decomposition by Carboxy Peptidase) A carboxy peptidase purchased from SIGMA was treated with PBS to prepare an enzyme solution of 1 U/ml, which was then kept warm at 37° C. in a water bath. […] Samples were analyzed by HPLC, and decomposition of a peptide by the peptidase was measured. […]
Numbered stars: 1 amine (or outer) side, 2 acyl side, 3 side chain; on linkers, the order of the positions; unused ones are H or OH. Bridge positions count the residues as written; N and C are the ends. Square brackets hold non-standard residues; d marks the D form. Peptide text beside a SMILES is read from it. Nle(6-ylidene) = O=C([C@H](CCCC=[*:3])N[*:1])[*:2]
Overview of recorded half-life at 0.2 mg/ml for various compounds
Report the value in h with no unit label.

CC(=O)N1CCCC[C@@H](C(=O)N[C@@H](Cc2ccc(O)cc2)C(=O)O)NC(=O)[C@H](CC(C)C)NC(=O)[C@H](Cc2ccc(O)cc2)NC(=O)[C@H](CCC(N)=O)NC(=O)[C@H](CO)NC(=O)[C@H](Cc2c[nH]c3ccccc23)NC(=O)CN(C(=O)[C@@H](N)Cc2ccc(O)cc2)CCCC1 ... 0.0495

Item CC(C)C[C@@H]1NC(=O)[C@H](Cc2ccc(O)cc2)NC(=O)[C@H](CCC(N)=O)NC(=O)[C@H](CO)NC(=O)[C@H](Cc2c[nH]c3ccccc23)NC(=O)[C@@H](NC(=O)[C@@H](N)Cc2ccc(O)cc2)CCC/C=C\CCC[C@@H](C(=O)N[C@@H](Cc2ccc(O)cc2)C(=O)O)NC1=O [Comp. 3] (H-Y[Nle(6-ylidene)]WSQYL[Nle(6-ylidene)]Y-OH; staple (Z) 2-8) has what recorded half-life at 0.2 mg/ml? 79
